Biological target: Beta-adrenergic receptor kinase 1 (Homo sapiens) (UniProt P25098)
Sequence (P25098 whole entry, looked up): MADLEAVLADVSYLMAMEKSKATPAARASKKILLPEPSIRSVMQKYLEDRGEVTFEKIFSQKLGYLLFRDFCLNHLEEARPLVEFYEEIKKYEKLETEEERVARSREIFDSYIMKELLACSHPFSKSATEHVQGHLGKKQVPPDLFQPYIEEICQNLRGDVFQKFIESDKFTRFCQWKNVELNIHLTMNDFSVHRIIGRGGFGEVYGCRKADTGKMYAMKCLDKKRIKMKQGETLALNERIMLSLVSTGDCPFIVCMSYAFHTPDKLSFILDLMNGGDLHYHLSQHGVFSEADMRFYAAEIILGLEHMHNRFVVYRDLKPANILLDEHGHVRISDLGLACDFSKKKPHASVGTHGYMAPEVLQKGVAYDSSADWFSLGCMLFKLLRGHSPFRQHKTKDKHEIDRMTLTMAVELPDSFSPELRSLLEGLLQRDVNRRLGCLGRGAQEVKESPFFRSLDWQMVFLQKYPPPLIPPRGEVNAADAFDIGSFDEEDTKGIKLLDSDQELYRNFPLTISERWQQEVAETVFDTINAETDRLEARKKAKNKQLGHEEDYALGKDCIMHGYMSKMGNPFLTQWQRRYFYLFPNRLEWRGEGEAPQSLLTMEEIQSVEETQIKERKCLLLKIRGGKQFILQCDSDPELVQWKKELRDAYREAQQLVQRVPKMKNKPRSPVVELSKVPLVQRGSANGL
Assay: GRK2 binders displacing RNA aptamer, biochemical, validation, human GRK2, bead flow cytometry (AID 488806)
Settings: bead-bound GRK2, FAM-aptamer displacement, at 10 µM, active compounds read high
Property name: aptamer binding inhibition (%)
State the answer as a number, implicitly in %.

compound="CC(NC(=O)c1cccnc1)C(=O)O (stereo unspecified)" property_name="aptamer binding inhibition" data_value=4
compound="C=CCC1(O)C(=O)N2C(=C1C(=O)N1CCOCC1)c1ccccc1CC2(C)C (stereo unspecified)" property_name="aptamer binding inhibition" data_value=1
compound=Cc1ccc(-n2cc(CNCCN3CCOC3=O)c(-c3ccc(F)cc3)n2)cc1 property_name="aptamer binding inhibition" data_value=2
compound=COc1ccc(/C=C\c2cc(OC)c(OC)cc2CC[N+](C)(C)C)cc1OC property_name="aptamer binding inhibition" data_value=-3
compound=CC(=O)N1CCN(c2ccc(OC[C@H]3CO[C@](Cn4ccnc4)(c4ccc(Cl)cc4Cl)O3)cc2)CC1 property_name="aptamer binding inhibition" data_value=-2

In: Read off the recorded aptamer binding inhibition for `COc1cccc2c(O)cc(=O)n(C)c12`
Out: -1

In: Read off the recorded aptamer binding inhibition for `COCCNC(=O)CSc1ccc(Cl)cc1`
Out: 1

In: Read off the recorded aptamer binding inhibition for O=C(NC(Nc1ccccn1)C(Cl)(Cl)Cl)c1ccccc1 (stereo unspecified)
Out: -1

In: Read off the recorded aptamer binding inhibition for `O=C(N1CCCC1)C12CC3CC(C1)CC(C(=O)N1CCCC1)(C3)C2`
Out: -1

In: Read off the recorded aptamer binding inhibition for `CC(=O)[C@H]1CC[C@H]2[C@@H]3CCC4=CC(=O)CC[C@]4(C)[C@H]3CC[C@]12C`
Out: 5

In: Read off the recorded aptamer binding inhibition for CC(C)CCC1(CCNC(C)c2cccs2)CCOC(C)(C)C1 (stereo unspecified)
Out: 0

###

Test: TOR pathway RTG branch CIT2 reporter changes – S. cerevisiae, GFP fusion, multiplex flow cytometry, primary screen (AID 1870);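 also: barcoded CIT2-GFP strain pooled with four other GFP strains with rapamycin as positive control; median GFP fluorescence per well over plate mean of DMSO wells so 100% = DMSO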
Details: S. cerevisiae CIT2-GFP expression, 3 h, at 10 µM, active compounds read high
Property name: percent response of DMSO control (%)
State the answer as a number, implicitly in %.

Illustrative cases are given below, each with its answer.
compound="CC(C)C12CN3CC(C(C)C)(CN(C1)C3c1ccccc1)C2O (stereo not given)" property_name="percent response of DMSO control" data_value=101
compound="CC(C)Oc1ccc(C2CC(=O)N(c3ccc(C(=O)O)cc3)C2=O)cc1 (stereo not given)" property_name="percent response of DMSO control" data_value=105
compound="O=C(c1ccc(Cl)cc1)C1CCCN(Cc2ccc(Oc3ncccn3)cc2)C1 (stereo not given)" property_name="percent response of DMSO control" data_value=106
compound=C[C@H](CCC(=O)O)[C@H]1CC[C@H]2[C@@H]3C(=O)C[C@@H]4CC(=O)CC[C@]4(C)[C@H]3CC(=O)[C@]12C property_name="percent response of DMSO control" data_value=101
compound="O=C1C(O)CC2c3ccccc3CC3(CCCC3)N12 (stereo not given)" property_name="percent response of DMSO control" data_value=105
compound=O=C(NCc1ccco1)/C(=C\C=C\c1ccccc1)NC(=O)c1ccccc1Br property_name="percent response of DMSO control" data_value=110
compound=COc1ccc(CCNC(=O)c2ccc(Cl)cc2)cc1OC property_name="percent response of DMSO control" data_value=107
compound=O=C(O)[C@H](Cc1ccccc1)NC(=O)N1CCC(Cc2ccccc2)CC1 property_name="percent response of DMSO control" data_value=96
compound=Cc1c(O)c(=O)ccn1C property_name="percent response of DMSO control" data_value=103
compound=O=C(/C=C/Sc1ccccc1)c1ccccc1 property_name="percent response of DMSO control" data_value=100

Next up:
In: Read off the recorded percent response of DMSO control for `Cc1cc(OC(=O)CNC(=O)OC(C)(C)C)c2c(C)cc(=O)oc2c1`
Out: 97.7

###

Target: Integrin beta-1 (Homo sapiens) + Integrin alpha-4 (Homo sapiens) (UniProt P13612+P05556)
Sequence (P05556 whole entry, looked up): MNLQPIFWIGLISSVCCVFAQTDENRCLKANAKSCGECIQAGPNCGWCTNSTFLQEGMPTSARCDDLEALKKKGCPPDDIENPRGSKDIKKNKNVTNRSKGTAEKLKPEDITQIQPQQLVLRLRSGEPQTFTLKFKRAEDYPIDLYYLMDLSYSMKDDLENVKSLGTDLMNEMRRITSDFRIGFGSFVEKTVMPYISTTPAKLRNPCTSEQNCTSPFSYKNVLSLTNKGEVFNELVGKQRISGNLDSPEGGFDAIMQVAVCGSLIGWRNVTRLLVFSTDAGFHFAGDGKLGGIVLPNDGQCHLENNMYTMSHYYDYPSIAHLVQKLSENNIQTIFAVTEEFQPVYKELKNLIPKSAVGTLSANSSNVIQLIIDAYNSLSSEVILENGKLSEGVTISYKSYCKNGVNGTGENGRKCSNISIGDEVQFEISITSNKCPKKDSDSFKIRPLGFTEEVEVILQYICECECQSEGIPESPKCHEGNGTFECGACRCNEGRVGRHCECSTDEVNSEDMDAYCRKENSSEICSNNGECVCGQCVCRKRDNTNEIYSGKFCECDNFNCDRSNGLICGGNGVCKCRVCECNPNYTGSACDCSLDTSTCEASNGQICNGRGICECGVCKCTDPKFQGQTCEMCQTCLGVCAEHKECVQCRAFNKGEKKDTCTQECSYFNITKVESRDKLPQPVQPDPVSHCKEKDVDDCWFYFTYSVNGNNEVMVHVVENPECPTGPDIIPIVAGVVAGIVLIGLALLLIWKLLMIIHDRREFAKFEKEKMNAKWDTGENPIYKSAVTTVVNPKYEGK
Sequence (P13612 whole entry, looked up): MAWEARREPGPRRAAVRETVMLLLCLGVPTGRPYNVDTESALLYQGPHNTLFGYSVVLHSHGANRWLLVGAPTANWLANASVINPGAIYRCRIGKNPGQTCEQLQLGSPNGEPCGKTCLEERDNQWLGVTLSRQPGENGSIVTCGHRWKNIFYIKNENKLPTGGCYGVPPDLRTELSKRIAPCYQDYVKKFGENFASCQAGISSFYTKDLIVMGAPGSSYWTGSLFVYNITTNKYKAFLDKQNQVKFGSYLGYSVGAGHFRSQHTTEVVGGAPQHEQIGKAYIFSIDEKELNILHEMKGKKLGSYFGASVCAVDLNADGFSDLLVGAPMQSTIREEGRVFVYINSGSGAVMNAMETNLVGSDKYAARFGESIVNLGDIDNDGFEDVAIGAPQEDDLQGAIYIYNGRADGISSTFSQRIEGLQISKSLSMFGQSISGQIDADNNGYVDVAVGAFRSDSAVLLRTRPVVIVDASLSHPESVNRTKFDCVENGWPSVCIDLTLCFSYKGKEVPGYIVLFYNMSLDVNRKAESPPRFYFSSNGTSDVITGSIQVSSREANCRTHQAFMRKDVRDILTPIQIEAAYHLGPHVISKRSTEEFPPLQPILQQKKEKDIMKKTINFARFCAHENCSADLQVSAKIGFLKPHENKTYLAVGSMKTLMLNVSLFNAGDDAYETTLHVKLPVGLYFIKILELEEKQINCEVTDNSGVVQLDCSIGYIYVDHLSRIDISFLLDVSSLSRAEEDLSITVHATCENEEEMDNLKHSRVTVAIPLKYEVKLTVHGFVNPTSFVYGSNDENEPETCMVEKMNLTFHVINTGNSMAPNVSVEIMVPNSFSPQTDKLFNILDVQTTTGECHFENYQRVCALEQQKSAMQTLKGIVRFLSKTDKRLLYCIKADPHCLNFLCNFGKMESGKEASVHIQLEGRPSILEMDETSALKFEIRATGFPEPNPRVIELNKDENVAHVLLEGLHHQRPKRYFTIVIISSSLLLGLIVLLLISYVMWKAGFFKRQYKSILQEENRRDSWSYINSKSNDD
Assay: alpha4beta1 integrin LIBS antibody binding reduction – U937 cells, HUTS-21 mAb, flow cytometry, validation set, VLA-4 allosteric modulator project, pilot screen (AID 2674);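 also: antibody binding induced by the VLA-4 ligand LDV present at three times its Kd; 0% = LDV ligand with antibody and no compound and 100% = antibody without LDV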
Settings: HUTS-21 LIBS mAb binding, at 6.7 µM, active compounds read high, binding induced by LDV ligand
Activity calls are given as the source filed them.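 Rule for the calls: active = inhibition above 50%, about 3 SD of the validation set; inactive = the rest.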
Property name: inhibition

compound="CCOC(=O)C1=C(C)NC(C)=C(C(=O)OC)C1c1cccc([N+](=O)[O-])c1 (configuration not stated)" data_value="8.4% (inactive)"
compound=CO[C@H]1C=CO[C@@]2(C)Oc3c(C)c(O)c4c(O)c(c(C=NN5CCN(C)CC5)c(O)c4c3C2=O)NC(=O)C(C)=CC=C[C@H](C)[C@H](O)[C@@H](C)[C@@H](O)[C@@H](C)[C@H](OC(C)=O)[C@@H]1C data_value="-46.9% (inactive)"
compound=CCc1ccc(/C=C2\Oc3cc(OC(=O)N4CCOCC4)ccc3C2=O)cc1 data_value="11.7% (inactive)"
compound=O=C1CCCN1C(=O)CCC(=O)N1CCCC1=O data_value="-11.9% (inactive)"
compound=CCN(CC)c1ccc([C@H]2[C@@H]3CCCC[C@]3(O)CCN2CC(=O)NCc2ccco2)cc1 data_value="-25% (inactive)"
compound="CCC(C(=O)OCCN(CC)CC)c1ccccc1 (configuration not stated)" data_value="2.55% (inactive)"

Next up:
In: Read off the recorded inhibition for CC12COC3(C(=O)Nc4ccc(F)cc4)CC1CCC32C (configuration not stated)
Out: 8.4% (inactive)

###

Target: AP-2 complex subunit beta (Homo sapiens) (UniProt P63010)
Sequence (P63010 whole entry, looked up, one chain of several): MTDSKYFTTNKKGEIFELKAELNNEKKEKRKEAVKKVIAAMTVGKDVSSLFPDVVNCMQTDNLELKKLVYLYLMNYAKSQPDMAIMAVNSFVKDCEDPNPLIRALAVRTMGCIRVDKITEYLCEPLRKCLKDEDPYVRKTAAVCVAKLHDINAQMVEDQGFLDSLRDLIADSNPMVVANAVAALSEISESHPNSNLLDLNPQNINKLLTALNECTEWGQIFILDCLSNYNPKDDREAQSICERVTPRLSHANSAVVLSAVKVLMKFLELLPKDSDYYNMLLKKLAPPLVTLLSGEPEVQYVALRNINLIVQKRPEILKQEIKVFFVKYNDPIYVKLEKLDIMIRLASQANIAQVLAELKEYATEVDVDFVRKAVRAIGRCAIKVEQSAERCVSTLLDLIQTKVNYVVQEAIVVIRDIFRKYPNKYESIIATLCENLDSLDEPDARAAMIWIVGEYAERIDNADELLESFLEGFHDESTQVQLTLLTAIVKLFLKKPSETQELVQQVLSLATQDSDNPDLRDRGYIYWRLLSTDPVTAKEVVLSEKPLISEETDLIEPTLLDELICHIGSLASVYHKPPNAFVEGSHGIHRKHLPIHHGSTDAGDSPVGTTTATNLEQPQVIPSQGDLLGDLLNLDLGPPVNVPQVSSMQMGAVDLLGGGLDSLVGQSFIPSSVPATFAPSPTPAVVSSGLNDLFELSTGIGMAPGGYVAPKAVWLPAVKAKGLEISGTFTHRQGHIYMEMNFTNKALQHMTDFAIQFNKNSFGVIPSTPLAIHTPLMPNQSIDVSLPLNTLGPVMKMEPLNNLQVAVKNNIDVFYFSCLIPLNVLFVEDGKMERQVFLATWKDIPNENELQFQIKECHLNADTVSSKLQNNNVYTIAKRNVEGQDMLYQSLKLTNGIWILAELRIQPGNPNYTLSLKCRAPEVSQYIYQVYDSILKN
Assay: beta-arrestin/AP2 interaction blockers – biochemical, validation set, GST-AP2 beads, flow cytometry, pilot screen (AID 504541);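 also: AP2 carries R879A mutation and is captured from E. coli lysate; bead-bound FITC arrestin peptide fluorescence measuring arrestin peptide binding to AP2; 0% = DMSO wells and 100% = excess unlabeled arrestin peptide control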
Conditions: FITC arrestin peptide, at 10 µM, active compounds read high, AP2 beta2 appendage fragment, R879A mutant
Property name: inhibition (%)
State the answer as a number, implicitly in %.

molecule=Nc1ccc(-c2nc3ncccc3o2)c(Cl)c1 property_name=inhibition data_value=-5.26
molecule=O=C(CS(=O)(=O)Cc1ccccc1)NCc1ccc2c(c1)OCO2 property_name=inhibition data_value=-1.72
molecule=CCc1ccc2oc(=O)cc(CN3CCC(C)CC3)c2c1 property_name=inhibition data_value=-0.51

In: Read off the recorded inhibition for CC1(c2ccccc2)CC(C)(C)N2C(=O)C(=O)c3cccc1c32 (stereo unspecified)
Out: 0.89

In: Read off the recorded inhibition for `C[C@]12CC[C@@H]3c4ccc(O)cc4CC[C@H]3[C@@H]1C[C@@H](O)[C@@H]2O[C@@H]1O[C@H](C(=O)O)[C@@H](O)[C@H](O)[C@H]1O`
Out: -6.28

In: Read off the recorded inhibition for `COc1ccc2nc(C)cc(Nc3ccccc3O)c2c1`
Out: 3.21

In: Read off the recorded inhibition for `C(=C\c1ccc2ccccc2n1)/c1ccccc1`
Out: -3.54

In: Read off the recorded inhibition for `O=C1CC2(CCCC2)CC(=O)N1CCCCN1CCN(c2ncccn2)CC1`
Out: -0.56

In: Read off the recorded inhibition for `NNC(=O)c1cc(O)c(O)c(O)c1`
Out: 12

In: Read off the recorded inhibition for `CCOC(=O)c1c(C)oc2c1C(=O)c1ccccc1C2=O`
Out: 0.55

In: Read off the recorded inhibition for CC(CCc1ccccc1)NC(=O)/C=C/c1ccccc1 (stereo unspecified)
Out: -0.16

###

Test: AML differentiation inducers, ER-HoxA9 marrow cells – cell-based, GFP/MAC1 double positive, flow cytometry, validation set, primary screen (AID 588685);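 also: compound exposure lasts four days before antibody staining and flow analysis; 0% = DMSO wells and 100% = 5 µM fulvestrant positive control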
Settings: active compounds read high, normalized: vehicle 0, fulvestrant 100
Property name: differentiation response (%)
State the answer as a number, implicitly in %.

Illustrative cases are given below, each with its answer.
molecule="CC(C)(C)C(=O)Nc1cccc(OC(F)(F)C(F)Cl)c1 (stereo not drawn)" property_name="differentiation response" data_value=11.8
molecule="CN1CCCN(C(c2ccccc2)c2ccc(Cl)cc2)CC1 (stereo not drawn)" property_name="differentiation response" data_value=-7.94
molecule=CN(C)[C@@H]1C(=O)C(C(N)=O)=C(O)[C@@]2(O)C(=O)C3=C(O)c4c(O)ccc(Cl)c4[C@@H](O)[C@H]3C[C@@H]12 property_name="differentiation response" data_value=8.8
molecule=O=C(N/N=C\c1cc([N+](=O)[O-])ccc1N1CCOCC1)c1ccccn1 property_name="differentiation response" data_value=-11.9
molecule=Cc1ccc2nc(N=C(N)N)nc(C)c2c1 property_name="differentiation response" data_value=-8.96
molecule=COc1ccccc1C(=O)Nc1cc2cc(Br)ccc2oc1=O property_name="differentiation response" data_value=-5.68
molecule="CC(CCCC(C)(C)O)NC(=O)c1ccc(OC2CCN(C(=O)C3CC3)CC2)cc1 (stereo not drawn)" property_name="differentiation response" data_value=-12
molecule=COc1ccccc1CCn1cnc2c3cc(C)ccc3n(C)c2c1=O property_name="differentiation response" data_value=-14.8

In: Read off the recorded differentiation response for `CNc1c2c(nn1C)CCCC2`
Out: -3.11

In: Read off the recorded differentiation response for `CC(C)OC(=O)CC12CN3CN(C1)CC(CC(=O)OC(C)C)(C3)C2=O`
Out: 39.2

In: Read off the recorded differentiation response for O=C(CN1C(=O)C2CCc3[nH]c4ccccc4c3C2C1=O)N1CCCC1 (stereo not drawn)
Out: 4.91
